# MEASURED ON: T1, CD25 protein (Sino Biological, 10165-H08H) (UniProt P01589 22-213)
# T1 construct: Bought recombinant protein; It speaks elsewhere of human CD25; also called antigen CD25; IL-2Rα
# T1 sequence (looked up): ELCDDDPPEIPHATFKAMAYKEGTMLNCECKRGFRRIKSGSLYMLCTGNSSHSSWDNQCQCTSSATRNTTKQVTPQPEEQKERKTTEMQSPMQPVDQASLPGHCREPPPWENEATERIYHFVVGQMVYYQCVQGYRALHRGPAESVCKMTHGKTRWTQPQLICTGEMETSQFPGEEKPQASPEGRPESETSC
# ASSAY PROTOCOL: SPR (BIAcore 8K); antibody captured by anti-human IgG Fc, CD25 protein as analyte, 1:1 model
QUANTITY MEASURED: kon (M⁻¹ s⁻¹)

>>> result_number("CD25Q11-BA415-IgG1 (antibody, V domains shown, IgG1 expressed in HEK293) VH: QVQLVQSGTEVKKPGESLKISCEGVGYSFTTYWIGWVRQMPGKGLEWMGIIYPGDSITRYSPSFQGQVTISADKSINTAYLQWSSLMASDTAMYYCVRGPHWGDYWGQGTLVTVSS VL: DIQMTQSPSTLSASVGDRVTITCRASQSISTWLAWYQQKPGKAPKLLIYKASSLESGVPSRFSGSGSGTEFTLTISSLQPDDFAAYYCQQYSSYSWTFGQGTKVEIKR")
323000
